Where do these numbers come from? They come from patent US20040002425A1.

Tested on: Transplanted paddy rice plant
Experiment: Biological Test 1 (treatment on the 3rd day after transplantation): chemical injury to paddy rice
Type: in vivo
Parameters: scale not given here
Conditions: Treatment performed 3 days after transplantation; dose 200 g/ha; examined on the 30th day after treatment
Listed next: entries and their corresponding Chemical injury, Transplanted paddy rice plant.
property_measured: Chemical injury, Transplanted paddy rice plant

compound	result_number
CC1(C)CCC(O)=C(C(=O)c2ccc3c(c2Cl)CCS3(=O)=O)C1=O [A-8]	3
CC1CC(C)(C)C(=O)C(C(=O)c2ccc3c(c2Cl)CCS3(=O)=O)=C1O (stereo not shown) [A-13]	3
Cc1cc(C(=O)C2=C(O)CCCC2=O)c(C)c2c1S(=O)(=O)CC2 [A-4]	1
CC1CC(O)=C(C(=O)c2ccc3c(c2Cl)CCS3(=O)=O)C(=O)C1C (stereo not shown) [A-16]	3
COc1c(C(=O)C2=C(O)CCCC2=O)ccc2c1CCS2(=O)=O [A-5]	0
Cc1c(C(=O)C2=C(O)CCCC2=O)ccc2c1CCS2(=O)=O [A-2]	0
O=C1CCCC([O-])=C1C(=O)c1ccc2c(c1Cl)CCS2(=O)=O.[Na+] [A-19]	1
Cc1cc(C(=O)C2=C(O)CCCC2=O)c(C)c2c1S(=O)(=O)C(C)C2 (stereo not shown) [Comparative Example I-4, reference compound]	4
O=C1CCCC(O)=C1C(=O)c1cc2c(cc1[N+](=O)[O-])OCO2 [Comparative Example I-1, reference compound]	4
Cc1cc(C(=O)C2=C(O)CC(C)(C)CC2=O)c(Cl)c2c1S(=O)(=O)CC2 [A-10]	3
